assay.info: Cytotoxicity against mouse BV2 cells assessed as maximum non-toxic concentration after 24 hrs by MTT assay
Assay type: cell-based, BV-2
Friendly reminder: MNTC at 24 h below 100 µM is Yes, at or above is No.

Reference set (4 entries):
[[record]]
compound = "COc1ccc2c(c1)c(CC(=O)O)c(C)n2C(=O)c1ccc(Cl)cc1"
label = "Yes"

[[record]]
compound = "N=C(N)NN"
label = "No"

[[record]]
compound = "C[C@@H]1CC(=O)C=C2CC[C@@H]([C@](C)(O)CO)C[C@]21C [(11S)-NOOTKATONE-11,12-DIOL]"
label = "Yes"

[[record]]
compound = "C=C(C)[C@@H]1CC(=O)C2=CC(=O)C[C@@H](C)[C@]2(C)C1"
label = "Yes"


Here is another compound to look at.
Query block: Below 100 µM on MNTC at 24 h? Entry C[C@@]12CCC(=O)C=C1[C@](C)(O)[C@H](O)CC2
Result block: Yes

* * *

assay.info: Cytotoxicity against mouse BV2 cells assessed as maximum non-toxic concentration after 24 hrs by MTT assay
Type: cell-based, BV-2
Recorded MNTC at 24 h, one value per entry.
All answers are understood in nM, so give the number only.

Query block: What value of measured MNTC at 24 h is listed for CC1=C2C=C(C(C)(O)CO)CC[C@]2(C)CCC1=O (some centres undefined) ?
Result block: 100

Query block: Then CC(=O)[C@H]1CC[C@@]2(C)CC(=O)C=C(C)[C@@]2(O)C1 ?
Result block: 100000

Query block: Then Cc1ccc2c(c1)[C@H](C(C)C)CCC2=O ?
Result block: 100

Query block: Then C=C(C)[C@@H]1CCC2=C[C@@H](O)C[C@@H](C)[C@]2(C)C1 ?
Result block: 30000

Query block: Then CC1=CC(=O)C[C@@]2(C)C[C@H]3OC(=O)C(C)=C3C[C@H]12 ?
Result block: 100000

Query block: Then C=C(C)[C@]1(O)CC[C@]2(C)CC(=O)C=C(C)[C@H]2C1 ?
Result block: 100

Query block: Then C[C@@]12CCC(=O)C=C1[C@@](C)(O)[C@H](O)CC2 ?
Result block: 100000

Query block: Then C=C(C)[C@@H]1CCC2=CC(=O)C[C@@H](C)[C@]2(C)C1 ?
Result block: 100

Query block: Then CC(C)[C@H]1CCC(=O)C2=C1[C@H](O)[C@](C)(O)CC2 ?
Result block: 1000

* * *

assay.info: Cytotoxicity against mouse BV2 cells assessed as maximum non-toxic concentration after 24 hrs by MTT assay
Assay type: cell-based, BV-2
Recorded MNTC at 24 h, one value per entry.
All answers are understood in µM, so give the number only.

Answered cases to consult:
[[record]]
sample_smiles = "CC(C)[C@@H]1CCC(=O)C2=C1[C@H](O)[C@](C)(O)CC2"
unit_symbol = "µM"
reported_result = 100

[[record]]
sample_smiles = "CC(=O)C1=CC2=C(C)C(=O)CC[C@@]2(C)CC1"
unit_symbol = "µM"
reported_result = 100


Query block: What value of measured MNTC at 24 h is listed for Cc1ccc2c(c1O)[C@H](C(C)C)CCC2=O ?
Result block: 100
